# protocol-details: Primary qHTS for inhibitors of nuclear receptor binding SET domain protein 2 (NSD2) in an RCH-ACV wild type WT cells (2C) (AID 1645877); note: nearly all actives have a fitted effect of over 70% in size
# experimental-parameters: RCH-ACV (leukaemia line) NSD2 WT (2C) viability, CellTiter-Glo, 72 h; series mostly up to 44.9 µM
Inconclusive results are not listed. The source made the active and inactive calls. Calls come from the whole dose curve; as a rule, active = well fitted inhibition curve with a large enough effect; inconclusive = small, poorly fitted or top-dose-only effect; inactive = no such curve, though single readings can be large or run the other way.
Assign a class; possible classes are Yes (active), No (inactive)

Exercise: Give the logged outcome of this assay for the following molecule: Cc1cc(N(C)C)ccc1-c1nc2ccc(-c3nc4ccc(N5CCN(C)CC5)cc4[nH]3)cc2[nH]1
Solution: Yes

Exercise: Which outcome did this test record for the molecule Cc1cccc2c1NC(=O)C2(c1ccc(O)cc1)c1ccc(O)cc1 ?
Solution: Yes

Exercise: Query: recorded result category for COC(=O)c1ccccc1O[C@@H]1O[C@H](CO)[C@@H](O)[C@H](O)[C@H]1O[C@@H]1O[C@@H](C)[C@H](O)[C@@H](O)[C@H]1O in this test
Solution: No

Exercise: Hi, do you know how N#Cc1ccc2[nH]cc(CCCCN3CCN(c4ccc5oc(C(N)=O)cc5c4)CC3)c2c1 came out in this test?
Solution: Yes

Exercise: Call for entry CO[C@@H](C)Cn1c(=O)n(C)c2cnc3ccc(-c4cncc(C(C)(C)O)c4)cc3c21 :
Solution: Yes

Others:
Exercise: What was the test verdict on CC1CCC2C(C)(C)[C@@H](O)CC[C@]2(C)C12Cc1c(O)cc3c(c1O2)CN(C(CCC(=O)O)C(=O)O)C3=O (some centres undefined) ?
Solution: No

Exercise: Record lookup: outcome of this test for COC(=O)c1ccc(OC(CO)C(O)c2ccc(O)c(OC)c2)c(OC)c1 (centres undefined) ?
Solution: No

Exercise: Record request — test call for CC(=O)OC/C=C(\C)C(CC1C(C)=C(OC(C)=O)C(=O)C2C(C)(C)C(O)CCC12C)OC(C)=O (centres undefined)
Solution: No

Exercise: Assay result, entry C=CC(C)(C)c1[nH]c2cc3c(cc2c1CC1NC(=O)C2CCCN2C1=O)C=CC(C)(C)O3 (centres undefined) — outcome?
Solution: No

Exercise: Hey, what did the test say about CC1(C)CCCC2(C)C1CC=C1C(=O)OC(O)C12O (centres undefined) ?
Solution: No

Exercise: What call does the record list for C=C1C[C@]23C[C@H]1[C@@H](O)C[C@H]2[C@@]12C=C[C@H](O)[C@@](C)(C(=O)O1)[C@H]2[C@@H]3C(=O)O ?
Solution: No

Exercise: State the result this test recorded for O=C(OC[C@H]1O[C@H](O[C@]2(CO)O[C@H](CO)[C@@H](O)[C@@H]2O)[C@H](O)[C@@H](O)[C@@H]1O)c1ccccc1 .
Solution: No

Exercise: GET /call?item= COC(=O)CC(C)(O)CC(=O)OCc1ccc(O[C@@H]2O[C@H](CO)[C@@H](O)[C@H](O)[C@H]2O)cc1 (some centres undefined) returns the recorded outcome of this test.
Solution: No

Exercise: Test call, this molecule: C[C@@H]1CC[C@]2(C(=O)O)CC[C@]3(C)C(=CCC4[C@@]5(C)CC[C@H](O)C(C)(C)C5C(O)C[C@]43C)[C@@H]2[C@]1(C)O (some centres undefined)
Solution: No

Exercise: State the result this test recorded for C[C@H]1CC(=O)Nc2cccc(-c3cnn(C(C)(C)C)c3)c2N1 .
Solution: No

Exercise: Kindly provide the recorded test outcome for the following molecule: CC1CC(C(O)C(C)(C)O)OC2CC3(C)C4(C)CCC5C(C)(C)C(=O)CCC5(C)C4CCC3(O)C12O (centres undefined)
Solution: No

Exercise: State the result this test recorded for C=C(C(=O)OC)C1C(O)CC2(C)C(=O)CCC(O)(CO)C2C1O (centres undefined) .
Solution: No

Exercise: Lab log entry: Nc1ncnc2c1nc(N)n2[C@@H]1O[C@H](CO)[C@@H](O)[C@H]1O — outcome as called in the assay?
Solution: Yes

Exercise: Returns: the outcome recorded for Cc1nc(C)c(-c2ccc(C3CCC(CC(=O)O)CC3)cc2)nc1C(N)=O (centres undefined) in this assay.
Solution: No

Exercise: Could you kindly confirm the outcome this assay logged for C/C=C1\[C@H](O[C@@H]2O[C@H](CO)[C@@H](O)[C@H](O)[C@H]2O)OC=C(C(=O)OC)[C@H]1CC(=O)O ?
Solution: No
